# study.target: T1, Recombinant cynomolgus TfR1, His6-tagged (a.a. 89-760) (cynomolgus, UniProt H9EXL1 89-760 (rhesus entry))
# T1 construct: range 89-760; same product number named for FP and SPR; also called Cyno TfR1; Acro Biosystems TFR-C524a
# T1 sequence (chain, as listed by the source): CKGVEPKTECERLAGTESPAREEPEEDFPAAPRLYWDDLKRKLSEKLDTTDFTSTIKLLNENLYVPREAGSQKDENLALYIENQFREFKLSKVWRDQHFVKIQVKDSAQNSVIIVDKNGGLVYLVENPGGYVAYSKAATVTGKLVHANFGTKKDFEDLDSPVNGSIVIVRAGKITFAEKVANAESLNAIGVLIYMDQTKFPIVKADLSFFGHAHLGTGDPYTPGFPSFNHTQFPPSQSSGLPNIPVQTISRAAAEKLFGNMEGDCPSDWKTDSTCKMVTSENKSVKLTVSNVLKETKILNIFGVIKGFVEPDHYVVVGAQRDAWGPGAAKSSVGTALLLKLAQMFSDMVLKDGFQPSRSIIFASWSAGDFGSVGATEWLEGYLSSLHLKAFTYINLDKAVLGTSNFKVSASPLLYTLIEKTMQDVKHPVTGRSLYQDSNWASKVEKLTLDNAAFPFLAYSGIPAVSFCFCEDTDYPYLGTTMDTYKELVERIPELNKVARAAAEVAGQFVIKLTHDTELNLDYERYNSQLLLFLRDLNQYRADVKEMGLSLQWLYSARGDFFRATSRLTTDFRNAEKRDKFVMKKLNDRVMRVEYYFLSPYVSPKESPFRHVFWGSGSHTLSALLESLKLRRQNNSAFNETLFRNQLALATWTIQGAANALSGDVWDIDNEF
# assay.method.text: SPR, TfR1 on chip
pKd: −log10 of the molar value. Starred links: 1 amine or outer side, 2 acyl side, 3 side chain; linkers in the order of their positions; H or OH if unused. Positions of bridges follow the written chain, without caps; N, C: chain ends. No end group written: not given here. TATB = O=C(C[*:1])N1CN(C(=O)C[*:2])CN(C(=O)C[*:3])C1
assay.endpoint: pKd

Take a look at these entries with their results.
Request: Consider the binder ACSADDWLGCISYCA (linker 2-10-14 via TATB) [BCY15471] and give its measured pKd.
Response: 2.33

Request: Again, but for ACSADDWLGCISWCA (3 Cys on TATB) [BCY13983]
Response: 2.34

a: ACPPDSWQGCISYCA (linker 2-10-14 via TATB) [BCY13989]
b: ACPQDAYLGCISWCA (linker 2-10-14 via TATB) [BCY15467]
Request: Which numeric pKd is bigger, that of a or that of b ? To answer, give the label that identifies your chosen option.
Response: b
(b: 2.80, a: 2.46)

P: ACALCNDWTLPWHHCA (3 Cys on TATA) [BCY12455]
Q: ACSSDAYLGCISWCA (3 Cys on TATB) [BCY13986]
Request: Which numeric pKd is bigger, that of P or that of Q ? To answer, give the label that identifies your chosen option.
Response: P
(P: 4.37, Q: 2.59)
